Test system: Hs-578T
Assay: NCI tumour cell line growth inhibition, 48 h
Active and inactive are the calls of the source. Cut-off read from the data, not from the text of the source: active = GI50 up to about 1.1 µM and inactive = higher.
Respond using exactly one of the listed classes: true (active), false (inactive)

compound | assigned label
COc1ccc(-c2oc3cc(-c4cc5oc(-c6ccc(OC)cc6)c(-c6ccc(OC)cc6)c5cc4OC)c(OC)cc3c2-c2ccc(OC)cc2)cc1 | false
COc1cc(C=O)cc(/C=N/c2ccc(S(N)(=O)=O)cc2)c1O | false
O=C1OC(c2ccccc2Br)=N/C1=C/c1ccccc1 | false

# input for lookup
## Input Please state the recorded outcome for this compound: "C[C@]12CC[C@H](OC(=O)Cc3ccc(N(CCCl)CCCl)cc3)CC1=CC[C@@H]1[C@@H]2CC[C@]2(C)C(=O)CC[C@@H]12"
## Output false
